# Test system: Wild type
# ASSAY_PROCEDURE: S. aureus survival, RN4220 and DeltatarO strains – OD600, teichoic acid synthesis inhibitors, primary screen (AID 463173)
# CONDITION_SUMMARY: S. aureus RN4220 wild type/DeltatarO growth, OD600, 18 h, screened at 18.75 µg/mL (by protocol)
Out of some 52,000 compounds screened, about 1,700 (3.3%) were called active. No stated cut-off is given here; in the data, active means survival mostly below about 52% (no sharp cut-off); inactive means mostly above about 56%. The list comes from a sample in which actives are over-represented; it also holds close analogues and randomly drawn compounds.
Could you please pick one outcome from this set? active, inactive

{"columns": ["COMPOUND", "CATEGORY"],
 "data": [
  ["CCOC(=O)c1ccccc1NC(=O)CCOc1ccccc1", "active"],
  ["CCc1ccc2nc(N(Cc3cccnc3)C(=O)c3cccs3)sc2c1", "inactive"],
  ["CCn1cc(C(=O)N2CCN(c3cc(Cl)ccc3C)CC2)c(=O)c2cc(S(=O)(=O)N3CCOCC3)ccc21", "inactive"]
]}

Assay outcome for COc1ccc(NC(=O)[C@H](Cc2ccccc2)N2Cc3ccccc3C2=O)cc1OC : what was it?
inactive

Assay outcome for Cc1cccc(-n2nc(C)c(C(=O)N3CCN(c4ccccc4)CC3)c2-n2cccc2)c1 : what was it?
inactive

Assay outcome for O=C(NCc1ccccc1)c1nc(S(=O)(=O)Cc2ccc(F)cc2)ncc1Cl : what was it?
active

Assay outcome for COc1ccc2c(c1)c1c(c(=O)n(CCc3ccccc3)c(=O)n1Cc1ccc(Cl)cc1)n2C : what was it?
inactive

Assay outcome for CCc1ccc(NC(=O)C(CC)n2nnc(C(=O)OC)c2C(=O)OC)cc1 (stereo unspecified) : what was it?
active

Assay outcome for CCN1CCN(CC2CCCCC2)CC1 : what was it?
inactive

Assay outcome for CCCc1nc(C(C#N)c2ccc(F)cc2)c2nnn(Cc3ccccc3)c2n1 (stereo unspecified) : what was it?
inactive

Assay outcome for CCOC(=O)c1ccccc1NC(=O)Cc1c(C(=O)O)c(C)cn1C : what was it?
active

Assay outcome for CC(=O)c1ccc(NC(=O)Cn2ncc3c(C)n(Cc4ccc(F)cc4)c(C)c3c2=O)cc1 : what was it?
inactive

###

Below, each entry is listed with its recorded survival.
# Tested on: Wild type
# ASSAY_PROCEDURE: S. aureus survival, RN4220 and DeltatarO strains – OD600, teichoic acid synthesis inhibitors, primary screen (AID 463173)
# CONDITION_SUMMARY: S. aureus RN4220 wild type/DeltatarO growth, OD600, 18 h, stronger effect = lower value, screened at 18.75 µg/mL (by protocol)
Screen size: about 52,000 compounds; about 1,700 (3.3%) were called active. What follows is part of a selection rich in actives, with near analogues and random picks from the rest.
Please respond with the number in % and leave the unit unwritten.

The examples below pair each entry with its known result.
{"columns": ["MOLECULE", "survival [%]"],
 "data": [
  ["COc1cccc(NC(=O)C2CCCN(c3ncnc4onc(C)c34)C2)c1 (stereo not drawn)", 72],
  ["Cc1nnc(SCC(=O)N(C2CCCCC2)C2CCCCC2)[nH]c1=O", 117]
]}

# input for lookup
survival on Wild type for CCOc1ccc(CCNC(=O)c2ccc3c(c2)N(Cc2ccccc2F)C(=O)c2ccccc2S3=O)cc1OCC (stereo not drawn) is 84

###

# Tested on: Wild type
# ASSAY_PROCEDURE: S. aureus survival, RN4220 and DeltatarO strains – OD600, teichoic acid synthesis inhibitors, primary screen (AID 463173)
# CONDITION_SUMMARY: S. aureus RN4220 wild type/DeltatarO growth, OD600, 18 h, stronger effect = lower value, screened at 18.75 µg/mL (by protocol)
The campaign covered roughly 52,000 compounds. About 1,700 (3.3%) were called active. Many of the other results were omitted from the sample, so actives are more common in it than they were.
Below, each entry is listed with its recorded survival.
Please respond with the number in % and leave the unit unwritten.

The examples below pair each entry with its known result.
{"columns": ["COMPOUND", "survival [%]"],
 "data": [
  ["COc1ccc(-c2nc3sc(CCNC(=O)C(=O)Nc4ccccc4C#N)c(C)n3n2)cc1", 85],
  ["Cc1ccc(C)c(Cn2c(=O)n(CCCCC(=O)NCc3ccc4c(c3)OCO4)c(=O)c3ccccc32)c1", 110],
  ["CCCOc1ccccc1C1C(C(=O)Nc2ccccc2)=C(C)Nc2nnnn21 (stereo not drawn)", 134],
  ["COc1cccc(OCc2nc3ccccc3n2Cc2ccccc2)c1", 86],
  ["Cc1ccc(-c2noc(-c3ccc(N4CCN(C)CC4)c([N+](=O)[O-])c3)n2)cc1", 85]
]}

survival on Wild type for CCN1C(=O)C(C2SC(=S)N(CC)C2=O)SC1=S (stereo not drawn) is 98

survival on Wild type for Cc1cccc(OCC(=O)N(Cc2ccccc2)c2ccccn2)c1 is 87

survival on Wild type for O=C1CC(CSc2nnnn2-c2ccccc2)=NN1 is 128

survival on Wild type for COc1ccc(-c2noc(COc3cc(C)c(Br)c(C)c3)n2)cc1OC is 80

survival on Wild type for COC(=O)c1ccc2c(=O)n(CCCCCC(=O)N3CCN(c4ccc(OC)cc4)CC3)c(=O)[nH]c2c1 is 66

survival on Wild type for Cc1cccc(-c2noc(-c3ccc(N4CCCC4)c([N+](=O)[O-])c3)n2)c1 is 81

survival on Wild type for Cc1cc(N2CCCC(O)C2)n2nc(C)c(-c3ccc(F)cc3)c2n1 (stereo not drawn) is 120

survival on Wild type for COc1ccc2c(c1)c1c(c(=O)n(-c3ccccc3C)c(=O)n1CC(N)=O)n2C is 82

survival on Wild type for N#Cc1ccc(S(=O)(=O)N2CCC(Oc3cccc(C(F)(F)F)c3)CC2)cc1 is 84

survival on Wild type for Cc1ccc2nc(/C(C#N)=C/c3ccccc3F)[nH]c2c1 is 46

survival on Wild type for Cc1cccc(-c2noc(-c3ccc(N4CCN(C)CC4)c([N+](=O)[O-])c3)n2)c1 is -3

survival on Wild type for COc1cccc(OCc2nc3ccccc3n2CCOc2ccccc2)c1 is 74

survival on Wild type for O=S1(=O)C=C(Sc2nnnn2-c2ccccc2)c2ccccc21 is -1

survival on Wild type for O=C(NCCc1ccccc1)c1ccc2c(c1)N(Cc1ccc(F)cc1)C(=O)CS2 is 88

###

Below, each entry is listed with its recorded survival.
# Tested on: Wild type
# ASSAY_PROCEDURE: S. aureus survival, RN4220 and DeltatarO strains – OD600, teichoic acid synthesis inhibitors, primary screen (AID 463173)
# CONDITION_SUMMARY: S. aureus RN4220 wild type/DeltatarO growth, OD600, 18 h, stronger effect = lower value, screened at 18.75 µg/mL (by protocol)
The whole screen tested about 52,000 compounds, of which about 1,700 (3.3%) were called active. Shown is part of a subset that was picked to be rich in actives.

The examples below pair each entry with its known result.
{"columns": ["COMPOUND", "TARGET_ENTITY", "REPORTED_RESULT"],
 "data": [
  ["Cc1cccc(C(=O)n2nc(-c3cccnc3)nc2NCc2ccccc2)c1", "Wild type", "106% (inactive)"],
  ["CCc1ccccc1N1CC(c2nc3ccccc3n2Cc2cccc(C)c2)CC1=O (stereo unspecified)", "Wild type", "66% (inactive)"],
  ["CCn1ccc2c(OCC(=O)Nc3ccccc3C(F)(F)F)cccc2c1=O", "Wild type", "80% (inactive)"],
  ["CCn1ccc2c(OCC(=O)Nc3ccc(OC)cc3OC)cccc2c1=O", "Wild type", "-3% (active)"],
  ["O=C(NC1CC(=O)N(c2ccc(F)cc2)C1)c1ccc(S(=O)(=O)N2CCCCC2)cc1 (stereo unspecified)", "Wild type", "83% (inactive)"]
]}

# input for lookup
# compound Cc1ccc2c(CC(=O)N(Cc3ccc(N(C)C)cc3)Cc3ccco3)coc2c1C ; its survival = 70% (inactive)

###

# Tested on: Wild type
# ASSAY_PROCEDURE: S. aureus survival, RN4220 and DeltatarO strains – OD600, teichoic acid synthesis inhibitors, primary screen (AID 463173)
# CONDITION_SUMMARY: S. aureus RN4220 wild type/DeltatarO growth, OD600, 18 h, stronger effect = lower value, screened at 18.75 µg/mL (by protocol)
In all, about 52,000 compounds went through this assay and about 1,700 (3.3%) were called active. This is one part of a sample in which actives are shown more often than they occur.
Below, each entry is listed with its recorded survival.
Please respond with the number in % and leave the unit unwritten.

{"columns": ["MOLECULE", "REPORTED_RESULT"],
 "data": [
  ["CCC(C)NC(=O)CSc1nc2n[nH]c(C)c2c(=N)n1-c1cc(Cl)ccc1C (stereo not drawn)", 72],
  ["Cc1ccc(C(=O)NCc2nnnn2-c2ccc(C)c(C)c2)cc1", 82],
  ["c1ccc(-n2ncc3c(NC4CCCC4)ncnc32)cc1", 121]
]}

# input for lookup
# molecule CCOC(=O)c1ccccc1NC(=O)c1ccncc1 ; its survival = 94

Data provenance: PubChem BioAssay AID463173
